# Tested on: MDA-MB-435 melanoma
# procedure.text: NCI-60 one-dose screen, 48 h
# conditions: 10 µM unless noted
Compounds without any hit were thinned out: in the full panel of roughly 83,000, 20% have a hit. Calls of active or inactive are those of the source. How the source made its calls: active means growth percent below 10; inactive means the rest.
# valid calls are class 1 (active), class 0 (inactive); nothing else

## Input GET /call?item= "COc1ccc(-c2no[n+]([O-])c2Nc2ccccc2Br)cc1" returns the recorded outcome of this test.
## Output class 0

## Input GET /call?item= "COc1ccc(N2CCN(C(=O)CSc3ccc(-c4nc5cc(C)c(C)cc5[nH]4)cn3)CC2)cc1" returns the recorded outcome of this test.
## Output class 0

## Input GET /call?item= "Cc1ccc(-c2csc(N/N=C/c3nc4ccccc4n3C3CC3)n2)cc1" returns the recorded outcome of this test.
## Output class 0

## Input GET /call?item= "N#C/C(=C\c1ccc(-c2ccc(F)cc2)o1)C(=O)Nc1ncc(Cc2ccc(Cl)cc2Cl)s1" returns the recorded outcome of this test.
## Output class 1

## Input GET /call?item= CC(c1ccccc1)N1C(=O)/C(=C/c2csc(C#N)n2)SC1=S (stereo not given) returns the recorded outcome of this test.
## Output class 0

## Input GET /call?item= "COc1cc(O)c2c(c1)[C@H]1O[C@@H]1C[C@H](O)[C@H](O)C(=O)/C=C\C[C@H](C)OC2=O" returns the recorded outcome of this test.
## Output class 0

## Input GET /call?item= "COc1ccc([C@H]2c3[nH]c4ccccc4c3C[C@@H]3C(=O)N(C4CCN(Cc5ccccc5)CC4)CC(=O)N23)c(OC)c1" returns the recorded outcome of this test.
## Output class 0

## Input GET /call?item= "CC(=O)c1sc(Nc2cccc(Nc3nc(C)c(C)s3)c2)nc1C" returns the recorded outcome of this test.
## Output class 0

## Input GET /call?item= "CN1CCN(Cc2ccc(NC(=O)c3cncc(C#Cc4cnc5ccc(O[C@H]6CCOC6)nn45)c3)cc2C(F)(F)F)CC1" returns the recorded outcome of this test.
## Output class 1

## Input GET /call?item= CCC(CC)n1c(=O)c(SC2=NC3C(NN2)N(CC)C(=O)N3CC)c(C(=O)O)c2ccccc21 (stereo not given) returns the recorded outcome of this test.
## Output class 1

## Input GET /call?item= "C#C[C@]1(O)CC[C@H]2[C@@H]3CC=C4c5sc(Nc6nc(C)cc(OC)n6)nc5CC[C@]4(C)[C@H]3CC[C@@]21C" returns the recorded outcome of this test.
## Output class 0

## Input GET /call?item= "CCNC(=NCCCN(C)C)N/C(N)=N/c1nc2ccccc2s1" returns the recorded outcome of this test.
## Output class 0

## Input GET /call?item= "COc1ccc(NC2=C(Cl)C(=O)C(C)=C(C)C2=O)cc1" returns the recorded outcome of this test.
## Output class 0

## Input GET /call?item= "Oc1ccc(CSc2nnc(-c3ccc(Br)cc3)o2)c2cccnc12" returns the recorded outcome of this test.
## Output class 0

## Input GET /call?item= "C=CCn1c(SCC(=O)Nc2ccc(OC)cc2)nnc1-c1ccc(Cl)cc1" returns the recorded outcome of this test.
## Output class 0

---

# System: HCT-116 colon
# procedure.text: NCI-60 one-dose screen, 48 h (100 = growth as untreated, 0 = no growth, -100 = all killed)
# conditions: 10 µM unless noted
About 83,000 compounds went through this panel and 20% of them were active in at least one assay; those are over-represented in the sample as a whole.
measured.quantity: growth (%)
Answer format: numeric, % implied, no suffix.

## Input Quick check: growth of COc1ccccc1/C=C/C=N/NC1=NC2C(S1)N(C)C(=O)N2c1ccccc1 (centres undefined) ?
## Output 3.81

## Input Quick check: growth of "CCOC(=O)c1nn(-c2ccccc2)c(=O)c2c(N)c(C#N)c(-c3cccs3)cc12" ?
## Output 52.8

## Input Quick check: growth of "Oc1ccccc1-c1nnc(SCc2ccc(O)c3ncccc23)o1" ?
## Output 10.5

## Input Quick check: growth of "Oc1ccc(CSc2nnc(-c3ccccc3)n2-c2ccccc2)c2cccnc12" ?
## Output 10.8

---

# Tested on: OVCAR-8 ovarian
# procedure.text: NCI-60 one-dose screen, 48 h (100 = growth as untreated, 0 = no growth, -100 = all killed)
# conditions: 10 µM unless noted
The panel holds about 83,000 compounds, 20% with a hit somewhere; the sample as a whole holds those more often. Active and inactive are the calls of the source. The calls were made as follows: active = growth percent below 10; inactive = the rest.
measured.quantity: growth

## Input Quick check: growth of "COc1cc(/C=C/C(=O)c2ccc(NC(=O)COc3cccc4cccnc34)cc2)cc(OC)c1OC" ?
## Output 79.7% (inactive)

## Input Quick check: growth of "CC(=O)NC(C)(C)C(=O)N[C@@H](C)C(=O)NC(C)(C)C(=O)N[C@@H](C)C(=O)NC(C)(C)C(=O)N[C@@H](C)C(=O)N[C@@H](CCC(N)=O)C(=O)NC(C)(C)C(=O)N[C@H](C(=O)NC(C)(C)C(=O)NCC(=O)N[C@@H](CC(C)C)C(=O)NC(C)(C)C(=O)N1CCC[C@H]1C(=O)N[C@H](C(=O)NC(C)(C)C(=O)NC(C)(C)C(=O)N[C@@H](CCC(N)=O)C(=O)N[C@@H](CCC(N)=O)C(=O)N[C@H](CO)CC1CCCCC1)C(C)C)C(C)C" ?
## Output 44.2% [5 µM] (inactive)

## Input Quick check: growth of "Cc1cn(-c2cc(NC(=O)c3cncc(C#Cc4cnc5ccc(OCCCS(C)(=O)=O)nn45)c3)cc(C(F)(F)F)c2)cn1" ?
## Output 15.4% (inactive)

## Input Quick check: growth of "Cc1occc1-c1nc2s/c(=C\c3cn(-c4ccccc4)nc3-c3ccccc3)c(=O)n2n1" ?
## Output 101% (inactive)

---

# System: SNB-75 CNS
# procedure.text: NCI-60 one-dose screen, 48 h
# conditions: 10 µM unless noted
Compounds without any hit were thinned out: in the full panel of roughly 83,000, 20% have a hit. The source made the active and inactive calls. Rule for the calls: active = growth percent below 10; inactive = the rest.
# valid calls are yes = active, no = inactive; nothing else

## Input GET /call?item= "CN1CCN(c2ccc3c(c2)nc(NNC(=O)c2ccncn2)c2cccn23)CC1" returns the recorded outcome of this test.
## Output no

## Input GET /call?item= CC(c1ccccc1)N1C(=O)/C(=C/c2csc(C#N)n2)SC1=S (stereo not drawn) returns the recorded outcome of this test.
## Output no

## Input GET /call?item= "COc1ccc(-c2nc(SCC(C)C)nc(N/N=C\c3cccc([N+](=O)[O-])c3)c2C#N)cc1" returns the recorded outcome of this test.
## Output yes

---

# Tested on: MDA-MB-231 breast
# procedure.text: NCI-60 one-dose screen, 48 h (100 = growth as untreated, 0 = no growth, -100 = all killed)
# conditions: 10 µM unless noted
The panel holds about 83,000 compounds, 20% with a hit somewhere; the sample as a whole holds those more often.
measured.quantity: growth (%)
Answer format: numeric, % implied, no suffix.

## Input Quick check: growth of "Fc1ccccc1/C=C(/C1=NCCN1)n1cnc2ccccc21" ?
## Output 93.4

## Input Quick check: growth of "O=C(CCCCCCN1CC(=O)N2[C@@H](c3ccccc3)c3[nH]c4ccccc4c3C[C@H]2C1=O)NO" ?
## Output 70.1

## Input Quick check: growth of "N#C/C(=C\c1ccc2ccccc2c1)C(=O)Nc1sc2c(c1C#N)CCC2" ?
## Output 98.1

---

# System: SF-295 CNS
# procedure.text: NCI-60 one-dose screen, 48 h (100 = growth as untreated, 0 = no growth, -100 = all killed)
# conditions: 10 µM unless noted
Compounds without any hit were thinned out: in the full panel of roughly 83,000, 20% have a hit.
Answer class 0 if growth is under 40%, and class 1 if it is 40% or more.

## Input Confirm if growth reported for the compound "CNC(=O)c1cc(Oc2ccc3nc(NC(=O)c4ccc(CN5CCCN(C)CC5)c(C(F)(F)F)c4)sc3c2)ccn1" is 40% or above.
## Output class 0

## Input Confirm if growth reported for the compound "C=C(C)C(=O)O[C@H]1C[C@@]2(C)OC(=CC2=O)/C(C)=C\[C@H]2OC(=O)C(=C)[C@H]12" is 40% or above.
## Output class 1

## Input Confirm if growth reported for the compound "C/C(=C(/c1ccc(O)cc1)c1ccc(OCCN2CCCC2)cc1)c1ccc(Cl)cc1" is 40% or above.
## Output class 1

## Input Confirm if growth reported for the compound "Oc1ccccc1/C=N/Nc1nc(N/N=C/c2ccccc2O)nc(N2CCOCC2)n1" is 40% or above.
## Output class 0

## Input Confirm if growth reported for the compound "O=c1[nH]c2cc(Cl)ccc2n1C1CCN(c2ccc3nnc(Cl)n3n2)CC1" is 40% or above.
## Output class 1

## Input Confirm if growth reported for the compound "COc1cc(/C=C/C(=O)c2ccc(NC(=O)COc3cccc4cccnc34)cc2)cc(OC)c1OC" is 40% or above.
## Output class 1

## Input Confirm if growth reported for the compound "N/C(=N\OC(=O)CSc1nc2ccccc2s1)c1ccc(Cl)cc1" is 40% or above.
## Output class 1
